I'd appreciate it if you could supply viability at 100 µM values for the items below.
Experiment: Cytotoxicity against bovine articular chondrocytes assessed as cell viability at 0.1 mM by MTT assay relative to control
Parameters: species or system Bos taurus
Details: cattle, read-out: Activity
A number alone suffices; assume %.

Input: # lookup: viability at 100 µM of CCOC(=O)[C@@H]1CCCN1P(=O)(Oc1ccc(OC)cc1)O[C@H]1[C@H](O)[C@@H](CO)O[C@H](OC)[C@@H]1NC(C)=O (some centres not stated)
Output: 62

Input: # lookup: viability at 100 µM of CCOC(=O)[C@@H](NP(=O)(Oc1ccc(OC)cc1)O[C@H]1[C@H](O)[C@@H](CO)O[C@H](OC)[C@@H]1NC(C)=O)C(C)C (some centres not stated)
Output: 85

Input: # lookup: viability at 100 µM of COC(=O)[C@@H](NP(=O)(Oc1ccc(OC)cc1)O[C@H]1[C@H](O)[C@@H](CO)O[C@H](O)[C@@H]1NC(C)=O)C(C)C (some centres not stated)
Output: 96

Input: # lookup: viability at 100 µM of N[C@H]1C(O)O[C@H](CO)[C@@H](O)[C@@H]1O (some centres not stated)
Output: 106

Input: # lookup: viability at 100 µM of COc1ccc(OP(=O)(O[C@H]2[C@H](O)[C@@H](CO)O[C@H](O)[C@@H]2NC(C)=O)N2CCC[C@H]2C(=O)OC(C)(C)C)cc1 (some centres not stated)
Output: 91

Input: # lookup: viability at 100 µM of COc1ccc(OP(=O)(N[C@@H](C)C(=O)OCc2ccccc2)O[C@H]2[C@H](O)[C@@H](CO)O[C@H](OC)[C@@H]2NC(C)=O)cc1 (some centres not stated)
Output: 78

Input: # lookup: viability at 100 µM of CCC(C)OC(=O)[C@@H]1CCCN1P(=O)(Oc1ccc(OC)cc1)O[C@H]1[C@H](O)[C@@H](CO)O[C@H](O)[C@@H]1NC(C)=O (some centres not stated)
Output: 96

The reported measurements were obtained from ChEMBL document CHEMBL2069258.
